# target.of.assay: Acetylcholinesterase (Homo sapiens) (UniProt P22303)
# Sequence (P22303 whole entry): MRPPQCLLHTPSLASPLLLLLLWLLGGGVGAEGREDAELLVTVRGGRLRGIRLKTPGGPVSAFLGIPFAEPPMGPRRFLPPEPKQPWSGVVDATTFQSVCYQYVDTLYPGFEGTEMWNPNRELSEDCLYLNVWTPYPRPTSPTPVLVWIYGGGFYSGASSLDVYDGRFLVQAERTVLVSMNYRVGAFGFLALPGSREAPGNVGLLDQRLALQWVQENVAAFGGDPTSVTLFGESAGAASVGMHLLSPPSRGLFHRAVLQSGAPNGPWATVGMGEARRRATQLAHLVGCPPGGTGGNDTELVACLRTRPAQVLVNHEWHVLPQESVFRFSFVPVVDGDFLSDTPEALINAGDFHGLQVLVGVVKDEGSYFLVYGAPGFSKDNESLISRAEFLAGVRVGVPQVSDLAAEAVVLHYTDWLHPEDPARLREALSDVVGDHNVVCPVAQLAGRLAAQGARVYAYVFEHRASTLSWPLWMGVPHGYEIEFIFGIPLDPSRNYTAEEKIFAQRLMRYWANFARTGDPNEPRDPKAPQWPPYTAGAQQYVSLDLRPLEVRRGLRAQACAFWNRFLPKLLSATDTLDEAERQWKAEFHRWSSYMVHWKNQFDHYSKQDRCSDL
# recorded.conditions: at 10 µM
# Description: Inhibition of acetylcholinesterase at 10 uM by Ellman's method
Each entry below carries its reported inhibition.

// known answers, use as guide
O=c1c2c(O)cc(O)cc2oc2c(O)ccc(O)c12 [DEMETHYLBELLIDIFOLIN] : 17.5%
O=c1c2c(O)c(-c3cc(O)c4oc5cc(O)cc(O)c5c(=O)c4c3O)c(O)cc2oc2c(O)ccc(O)c12 : 20.9%
COc1cc(O)c2c(=O)c3c(O[C@@H]4O[C@H](CO)[C@@H](O)[C@H](O)[C@H]4O)ccc(O)c3oc2c1 [SWERTIANOLIN] : 9.8%
COc1cc(O)c2c(=O)c3c(O)ccc(O)c3oc2c1 [BELLIDIFOLIN] : 21.9%
COc1cc(O)c2c(=O)c3c(O)c(O[C@@H]4O[C@H](CO)[C@@H](O)[C@H](O)[C@H]4O)ccc3oc2c1OC [TRIPTEXANTHOSIDE C] : 43.7%
COc1ccc(O[C@@H]2O[C@H](CO)[C@@H](O)[C@H](O)[C@H]2O)c2c(=O)c3c(O)c(-c4cc(O)c5oc6cc(O)cc(O)c6c(=O)c5c4O)c(O)cc3oc12 : 12.3%
COc1c(O)ccc2c(=O)c3c(OC4O[C@H](CO)[C@@H](O)[C@H](O)[C@H]4O)cc(O)c(OC)c3oc12 (stereo not given in full) : 1.5%
O=c1c2c(O)cc(O)cc2oc2c(O)ccc(O[C@@H]3O[C@H](CO)[C@@H](O)[C@H](O)[C@H]3O)c12 [NORSWERTIANOLIN] : 4.4%

Give the reported inhibition for COc1cc(O)c2c(=O)c3cc(O[C@@H]4O[C@H](CO)[C@@H](O)[C@H](O)[C@H]4O)ccc3oc2c1OC [VERATRILOSIDE] (system: Acetylcholinesterase (Homo sapiens) (UniProt P22303)).
28.2%

Recorded inhibition for COc1ccc(O)c2c(=O)c3c(O)cc(O[C@@H]4O[C@H](CO)[C@@H](O)[C@H](O)[C@H]4O)c(OC)c3oc12 with Acetylcholinesterase (Homo sapiens) (UniProt P22303), please?
17.6%

Data provenance: ChEMBL document CHEMBL1149880
